From: patent US7419984B2

For each record, write down the corresponding pIC50.
Target: human LPAAT-β (Homo sapiens, UniProt O15120)
Construct: the full-length human LPAAT-β cDNA was amplified by PCR; poly-histidine tag (N); the membrane fraction was used as the enzyme
Sequence (O15120 24-278): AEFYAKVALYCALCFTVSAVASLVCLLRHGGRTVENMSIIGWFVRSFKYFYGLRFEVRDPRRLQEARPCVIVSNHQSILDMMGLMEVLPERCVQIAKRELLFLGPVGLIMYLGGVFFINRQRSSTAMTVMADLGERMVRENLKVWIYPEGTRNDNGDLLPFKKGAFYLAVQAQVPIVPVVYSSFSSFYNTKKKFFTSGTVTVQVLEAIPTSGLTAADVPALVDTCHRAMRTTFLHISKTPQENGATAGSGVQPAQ
Experiment: LPAAT-β cell-free assay
Settings: Sf9 cell membrane overexpressing recombinant LPAAT-β
// field semantics: pIC50 = negative decimal log of concentration (mol/L)

Reported pIC50 for Cc1ccc(Br)cc1-c1cc(Nc2ccc(Br)cc2)nc(N)n1 was 7.74

Reported pIC50 for COc1ccc(Cl)cc1-c1cc(Nc2ccc([N+](=O)[O-])cc2)nc(N)n1 was 7.85

Reported pIC50 for CCOc1ccc(Br)cc1-c1cc(Nc2ccc(CCO)cc2)ncn1 was 7.70

Reported pIC50 for CCOC(=O)c1cccc(Nc2cc(-c3cc(Cl)ccc3C)nc(N)n2)c1 was 7.38

Reported pIC50 for CCOc1ccc(Cl)cc1-c1cc(Nc2ccc(CCCO)cc2)nc(N)n1 was 6.64

Reported pIC50 for CCOc1ccc(Br)cc1-c1cc(Nc2ccc(C(F)(F)F)cc2)nc(N)n1 was 7.22

Reported pIC50 for Nc1nc(Nc2ccc3c(c2)OCO3)cc(-c2cc(Cl)ccc2Cl)n1 was 7.02

Reported pIC50 for CCc1ccc(Cl)cc1-c1cc(Nc2ccc(Cl)cc2)nc(N)n1 was 6.74

Reported pIC50 for COc1ccc(Br)cc1-c1cc(Nc2ccc(CCO)cc2)nc(N)n1 was 7.26

====

target: human LPAAT-β (Homo sapiens, UniProt O15120); construct: the full-length human LPAAT-β cDNA was amplified by PCR; poly-histidine tag (N); the membrane fraction was used as the enzyme; experiment: LPAAT-β cell-free assay; settings: Sf9 cell membrane overexpressing recombinant LPAAT-β
pIC50: −log10 of the molar value.
Classify as follows. Reported pIC50 greater than or equal to 7: rule met. Reported pIC50 below: rule not met.

[Q] Threshold query (pIC50 >= 7) on Cc1nc(Nc2ccc(Br)cc2)cc(-c2cc(Cl)ccc2C)n1
[A] rule met

[Q] Threshold query (pIC50 >= 7) on CNC(=O)c1cc(Nc2cc(-c3cc(Br)ccc3C)nc(N)n2)ccc1Br
[A] rule not met

[Q] Threshold query (pIC50 >= 7) on COc1ccccc1COc1ccc(Br)cc1-c1cc(Nc2ccc(C)cc2)nc(N)n1
[A] rule met

[Q] Threshold query (pIC50 >= 7) on CCc1ccc(Cl)cc1-c1cc(Nc2ccc(C(F)(F)F)cc2)nc(N)n1
[A] rule not met

[Q] Threshold query (pIC50 >= 7) on Nc1nc(Nc2ccc(Cl)cc2)cc(-c2cc(Br)ccc2O)n1
[A] rule not met

[Q] Threshold query (pIC50 >= 7) on Nc1nc(Nc2ccc(Cl)cc2)cc(-c2cc(Cl)ccc2OCC2CCCCC2)n1
[A] rule met

[Q] Threshold query (pIC50 >= 7) on CCOC(=O)c1cccc(Nc2cc(-c3cc(Cl)ccc3Cl)nc(N)n2)c1
[A] rule met

[Q] Threshold query (pIC50 >= 7) on CCOc1ccc(Br)cc1-c1cc(Nc2ccc(C(O)C(F)(F)F)cc2)nc(N)n1 (stereo not drawn)
[A] rule met

[Q] Threshold query (pIC50 >= 7) on CCOc1ccc(Br)cc1-c1cc(Nc2ccc(B(O)O)cc2)nc(N)n1
[A] rule not met

[Q] Threshold query (pIC50 >= 7) on Cc1ccc(F)cc1-c1cc(Nc2ccc(C(F)(F)F)cc2)nc(N)n1
[A] rule not met

[Q] Threshold query (pIC50 >= 7) on Nc1nc(Nc2ccc(Cl)c(C(F)(F)F)c2)cc(-c2cc(Cl)ccc2Cl)n1
[A] rule not met

[Q] Threshold query (pIC50 >= 7) on Nc1nc(Nc2ccc3cn[nH]c3c2)cc(-c2cc(Cl)ccc2Cl)n1
[A] rule met

[Q] Threshold query (pIC50 >= 7) on COc1ccc(Cl)cc1-c1cc(Nc2ccc(Br)cc2)nc(N)n1
[A] rule met

====

Target: human LPAAT-β (Homo sapiens)
Construct: the full-length human LPAAT-β cDNA was amplified by PCR; poly-histidine tag (N); the membrane fraction was used as the enzyme
Assay: LPAAT-β cell-free assay
Conditions: Sf9 cell membrane overexpressing recombinant LPAAT-β
Excerpt: For the construction of Baculovirus expression vectors, the full-length human LPAAT-β cDNA was amplified by PCR from the DNA template pCE9.LPAAT-β (West et al., DNA Cell Bid. 16.691-701 (1997)) using the primers 5′-[…] […] […]-3′ (olpb1F; SEQ ID NO:1) and 5′-[…] […] LPAAT-β catalyzes the transfer of an acyl group from a donor such as acyl-CoA to LPA. […] The absorbance at 405 nm, measured using a spectrophotometer plate reader, is proportional to the activity of LPAAT-2 in the sample. […]
TEST READOUT: pIC50
// field semantics: pIC50 = negative decimal log of concentration (mol/L)

Known value: human LPAAT-β (Homo sapiens) pIC50 of the molecule CCOc1ccc(Cl)cc1-c1cc(Nc2ccc(CCCC(=O)O)cc2)nc(N)n1 [Example 95] equals 6.51

Known value: human LPAAT-β (Homo sapiens) pIC50 of the molecule CCc1ccc(Cl)cc1-c1cc(Nc2ccc([N+](=O)[O-])cc2)nc(N)n1 [Example 169] equals 7.03

Known value: human LPAAT-β (Homo sapiens) pIC50 of the molecule CCOc1ccc(Cl)cc1-c1cc(Nc2ccc3cn[nH]c3c2)nc(N)n1 [Example 54] equals 7.62

Known value: human LPAAT-β (Homo sapiens) pIC50 of the molecule COc1ccc(Cl)cc1-c1cc(Nc2ccc(C(F)(F)F)cc2)nc(N)n1 [Example 4] equals 7.06

Known value: human LPAAT-β (Homo sapiens) pIC50 of the molecule CCOc1ccc(Cl)cc1-c1cc(Nc2ccc(C#N)cc2)nc(N)n1 [Example 57] equals 7.66

Known value: human LPAAT-β (Homo sapiens) pIC50 of the molecule CNC(=O)c1cc(Nc2cc(-c3cc(Cl)ccc3C)nc(N)n2)ccc1Br [Example 77] equals 6.43

Known value: human LPAAT-β (Homo sapiens) pIC50 of the molecule CCOc1ccc(Br)cc1-c1cc(Nc2ccc(C(=O)NO)cc2)nc(N)n1 [Example 183] equals 7.06

Known value: human LPAAT-β (Homo sapiens) pIC50 of the molecule Nc1nc(Nc2ccc(Cl)cc2)cc(-c2cc(Cl)ccc2OCC(F)(F)F)n1 [Example 89] equals 7.00

Known value: human LPAAT-β (Homo sapiens) pIC50 of the molecule COc1ccc(Br)cc1-c1cc(Nc2ccc(C(F)(F)F)cc2)nc(N)n1 [Example 150] equals 7.00

Known value: human LPAAT-β (Homo sapiens) pIC50 of the molecule CCOc1ccc(Cl)cc1-c1cc(N(C)c2ccc(Cl)cc2)nc(N)n1 [Example 122] equals 5.92

Known value: human LPAAT-β (Homo sapiens) pIC50 of the molecule CCOc1ccc(Cl)cc1-c1cc(Nc2ccc(S(C)(=O)=O)cc2)nc(N)n1 [Example 124] equals 6.96

Known value: human LPAAT-β (Homo sapiens) pIC50 of the molecule CCOc1ccc(Cl)cc1-c1cc(Nc2ccc(-c3cnco3)cc2)nc(N)n1 [Example 66] equals 6.35

Known value: human LPAAT-β (Homo sapiens) pIC50 of the molecule Cc1ccc(Cl)cc1-c1cc(Nc2ccc(CO)cc2)nc(N)n1 [Example 33] equals 7.02

Known value: human LPAAT-β (Homo sapiens) pIC50 of the molecule CCc1ccc(Cl)cc1-c1cc(Nc2ccc(Br)cc2)nc(N)n1 [Example 163] equals 6.51

Known value: human LPAAT-β (Homo sapiens) pIC50 of the molecule CCOc1ccc(Cl)cc1-c1cc(Nc2ccc(OC)cc2)nc(N)n1 [Example 58] equals 6.70

Known value: human LPAAT-β (Homo sapiens) pIC50 of the molecule Nc1nc(Nc2ccc(Cl)cc2)cc(-c2cc(Br)ccc2OCc2ccccc2)n1 [Example 146] equals 8.52

Known value: human LPAAT-β (Homo sapiens) pIC50 of the molecule CSc1cccc(Nc2cc(-c3cc(Cl)ccc3C)nc(N)n2)c1 [Example 111] equals 6.55

Known value: human LPAAT-β (Homo sapiens) pIC50 of the molecule CCOc1ccc(Br)cc1-c1cc(Nc2ccc(CCO)cc2)nc(N)n1 [Example 70] equals 7.54

====

Biological target: human LPAAT-β (Homo sapiens)
Construct: the full-length human LPAAT-β cDNA was amplified by PCR; poly-histidine tag (N); the membrane fraction was used as the enzyme
Assay: LPAAT-β cell-free assay
Settings: Sf9 cell membrane overexpressing recombinant LPAAT-β
Source text: For the construction of Baculovirus expression vectors, the full-length human LPAAT-β cDNA was amplified by PCR from the DNA template pCE9.LPAAT-β (West et al., DNA Cell Bid. 16.691-701 (1997)) using the primers 5′-[…] […] […]-3′ (olpb1F; SEQ ID NO:1) and 5′-[…] […] LPAAT-β catalyzes the transfer of an acyl group from a donor such as acyl-CoA to LPA. […] The absorbance at 405 nm, measured using a spectrophotometer plate reader, is proportional to the activity of LPAAT-2 in the sample. […]
TEST READOUT: IC50

Reported IC50 for CCOc1ccc(Br)cc1-c1cc(Nc2ccc(F)cc2)ncn1 [Example 192] was 0.06 µM

Reported IC50 for CCOc1ccc(Cl)cc1-c1cc(Nc2ccc(CC(C)(C)O)cc2)nc(N)n1 [Example 120] was 0.18 µM

Reported IC50 for CC(=O)c1ccc(Nc2cc(-c3cccc(Cl)c3)nc(N)n2)cc1 [Example 139] was 0.34 µM

Reported IC50 for Cc1ccc(Cl)cc1-c1cc(Nc2ccc([N+](=O)[O-])cc2)nc(N)n1 [Example 108] was 0.015 µM

Reported IC50 for COc1ccc(Cl)cc1-c1cc(Nc2ccc3cn[nH]c3c2)nc(C)n1 [Example 40] was 0.014 µM

Reported IC50 for CN(C)CCCOc1ccc(Br)cc1-c1cc(Nc2ccc(Cl)cc2)nc(N)n1 [Example 156] was 1.4 µM

Reported IC50 for Nc1nc(Nc2ccc(Cl)cc2)cc(-c2cc(Br)ccc2Cl)n1 [Example 187] was 0.022 µM

Reported IC50 for Cc1ccc(Cl)cc1-c1cc(Nc2ccc(C#N)cc2)nc(N)n1 [Example 32] was 0.038 µM

Reported IC50 for COc1ccc(Cl)cc1-c1cc(N)nc(Nc2ccc3cn[nH]c3c2)n1 [Example 35] was 0.8 µM

Reported IC50 for COc1ccc(Cl)cc1-c1cc(Nc2ccc3c(c2)OCO3)nc(N)n1 [Example 13] was 0.1 µM

Reported IC50 for CC(C)Oc1ccc(Br)cc1-c1cc(Nc2ccc(Cl)cc2)nc(N)n1 [Example 136] was 0.17 µM

Reported IC50 for Cc1ccc(Br)cc1-c1cc(Nc2ccc([N+](=O)[O-])cc2)nc(N)n1 [Example 88] was 0.021 µM

Reported IC50 for Nc1nc(Nc2ccc(Cl)cc2)cc(-c2cc(Cl)ccc2Cl)n1 [Example 20] was 0.02 µM

Reported IC50 for Cc1ccc(Cl)cc1-c1cc(Nc2ccc(CCCCO)cc2)nc(N)n1 [Example 110] was 0.21 µM

Reported IC50 for CNC(=O)c1cc(Nc2cc(-c3cc(Br)ccc3OC)nc(N)n2)ccc1Cl [Example 184] was 0.2 µM

Reported IC50 for Nc1nc(Nc2ccc([N+](=O)[O-])cc2)cc(-c2cc(Br)ccc2OCc2ccccc2)n1 [Example 177] was 0.002 µM

Reported IC50 for CCOc1ccc(Cl)cc1-c1cc(Nc2ccc(OCCO)cc2)nc(N)n1 [Example 90] was 0.78 µM

Reported IC50 for Cc1ccc(Cl)cc1-c1cc(Nc2ccc(CCO)cc2)nc(N)n1 [Example 49] was 0.049 µM

Reported IC50 for Nc1nc(Nc2ccc(Cl)cc2)cc(-c2cc(Br)ccc2OCCN2CCOCC2)n1 [Example 149] was 0.071 µM

Reported IC50 for Cc1ccc(Cl)cc1-c1cc(Nc2ccc(C(CO)CO)cc2)nc(N)n1 [Example 116] was 1.1 µM

Reported IC50 for Nc1nc(Nc2ccc(C(F)(F)F)cc2)cc(-c2cc(Cl)cc(Cl)c2Cl)n1 [Example 102] was 0.5 µM

Reported IC50 for Nc1nc(Nc2ccc(Cl)cc2)cc(-c2cc(Cl)ccc2OCc2ccccc2)n1 [Example 155] was 0.004 µM

Reported IC50 for Cc1ccc(C)c(-c2cc(Nc3ccc(CCO)cc3)nc(N)n2)c1 [Example 74] was 0.55 µM

Reported IC50 for CCOc1ccc(Br)cc1-c1cc(Nc2ccc(C(N)=O)cc2)nc(N)n1 [Example 186] was 0.74 µM

Reported IC50 for Cc1ccc(Br)cc1-c1cc(Nc2ccc(C#N)cc2)nc(N)n1 [Example 86] was 0.04 µM

Reported IC50 for Nc1nc(Nc2ccc(Cl)cc2)cc(-c2cccc(Cl)c2Cl)n1 [Example 118] was 0.71 µM

Reported IC50 for CCOc1ccc(Cl)cc1-c1cc(Nc2ccc(S(N)(=O)=O)cc2)nc(N)n1 [Example 96] was 0.073 µM

Reported IC50 for CCCCCCOc1ccc(Br)cc1-c1cc(Nc2ccc(Cl)cc2)nc(N)n1 [Example 145] was 0.005 µM

Reported IC50 for Nc1nc(Nc2ccc(Br)cc2)cc(-c2cc(Cl)ccc2Cl)n1 [Example 14] was 0.026 µM

Reported IC50 for Nc1nc(Nc2ccc(CO)cc2)cc(-c2cc(Cl)ccc2Cl)n1 [Example 22] was 0.06 µM

Reported IC50 for CCOc1ccc(Br)cc1-c1cc(Nc2ccc(C(C)OC)cc2)nc(N)n1 (stereo not drawn) [Example 137] was 0.26 µM

Reported IC50 for COc1ccc(Cl)cc1-c1cc(Nc2ccc(CO)cc2)nc(N)n1 [Example 10] was 0.12 µM

Reported IC50 for COc1ccc(Cl)cc1-c1cc(N)nc(Nc2ccc(Cl)cc2)n1 [Example 34] was 2 µM

Reported IC50 for COc1ccc(Cl)cc1-c1nc(N)nc(Nc2ccc3cn[nH]c3c2)c1Br [Example 52] was 0.5 µM

Reported IC50 for COc1ccc(Br)cc1-c1cc(Nc2ccc(Br)cc2)nc(N)n1 [Example 162] was 0.036 µM

Reported IC50 for COCCOc1ccc(Br)cc1-c1cc(Nc2ccc(Cl)cc2)nc(N)n1 [Example 143] was 0.022 µM
